This collection of values is drawn from patent US20240018502A1.

# tgt: plasma purified human complement protein C3 (human) (UniProt P01024)
# Sequence (P01024 23-667, chain 1 of 2): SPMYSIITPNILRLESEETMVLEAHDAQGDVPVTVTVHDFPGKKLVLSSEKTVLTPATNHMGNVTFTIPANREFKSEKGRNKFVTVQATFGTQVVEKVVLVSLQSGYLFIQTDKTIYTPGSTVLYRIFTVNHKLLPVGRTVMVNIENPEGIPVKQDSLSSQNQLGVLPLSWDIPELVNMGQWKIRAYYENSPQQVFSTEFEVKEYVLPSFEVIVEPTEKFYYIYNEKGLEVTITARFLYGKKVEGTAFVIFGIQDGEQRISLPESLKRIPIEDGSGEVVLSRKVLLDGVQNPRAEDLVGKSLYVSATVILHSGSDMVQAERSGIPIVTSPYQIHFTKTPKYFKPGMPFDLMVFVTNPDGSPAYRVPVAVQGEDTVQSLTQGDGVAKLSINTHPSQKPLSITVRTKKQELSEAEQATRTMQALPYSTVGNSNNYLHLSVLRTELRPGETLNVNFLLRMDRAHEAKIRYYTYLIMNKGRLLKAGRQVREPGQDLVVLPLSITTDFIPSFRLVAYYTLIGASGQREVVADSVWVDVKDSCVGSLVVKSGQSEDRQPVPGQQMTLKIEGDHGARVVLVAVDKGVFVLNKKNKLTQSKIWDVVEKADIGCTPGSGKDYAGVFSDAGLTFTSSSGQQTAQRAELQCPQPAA
# Sequence (P01024 672-1663, chain 2 of 2): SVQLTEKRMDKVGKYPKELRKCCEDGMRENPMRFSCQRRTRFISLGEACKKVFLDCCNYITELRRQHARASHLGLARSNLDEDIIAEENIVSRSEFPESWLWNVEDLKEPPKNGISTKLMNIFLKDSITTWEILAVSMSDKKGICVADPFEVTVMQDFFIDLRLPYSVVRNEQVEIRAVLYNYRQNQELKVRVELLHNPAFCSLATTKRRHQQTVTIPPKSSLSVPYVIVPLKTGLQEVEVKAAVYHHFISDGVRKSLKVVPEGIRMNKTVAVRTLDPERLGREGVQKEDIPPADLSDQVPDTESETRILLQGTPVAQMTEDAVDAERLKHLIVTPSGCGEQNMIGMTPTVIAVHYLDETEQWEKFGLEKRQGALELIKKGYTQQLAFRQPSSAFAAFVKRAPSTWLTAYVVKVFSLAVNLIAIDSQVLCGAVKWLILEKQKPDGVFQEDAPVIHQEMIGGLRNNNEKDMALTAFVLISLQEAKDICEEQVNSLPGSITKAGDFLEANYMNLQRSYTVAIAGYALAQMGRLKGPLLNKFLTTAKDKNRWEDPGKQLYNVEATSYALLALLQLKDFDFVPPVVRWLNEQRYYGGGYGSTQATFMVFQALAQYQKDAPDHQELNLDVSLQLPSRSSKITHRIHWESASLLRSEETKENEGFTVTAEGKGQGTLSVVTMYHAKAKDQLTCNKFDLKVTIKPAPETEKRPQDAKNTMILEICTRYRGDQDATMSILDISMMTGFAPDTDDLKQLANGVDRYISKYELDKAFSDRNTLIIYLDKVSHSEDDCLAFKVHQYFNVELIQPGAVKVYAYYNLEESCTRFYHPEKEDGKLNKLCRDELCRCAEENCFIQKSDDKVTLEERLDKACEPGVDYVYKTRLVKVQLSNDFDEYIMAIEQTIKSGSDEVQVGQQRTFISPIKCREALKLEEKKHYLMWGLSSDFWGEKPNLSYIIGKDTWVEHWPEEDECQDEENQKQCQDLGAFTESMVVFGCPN
# assay.comment: cell-based or functional assay
test.readout: EC50 hC3 cleavage (nM)
Report the value in nM with no unit label.

Below, each entry is followed by its recorded EC50 hC3 cleavage result.
MTSP-1 protease domain I41S/Y59F/ins97aV/C122S/Q192G/N223D (enzyme) VVGGTDADEGEWPWQVSLHALGQGHSCGASLISPNWLVSAAHCFIDDRGFRYSDPTQWTAFLGLHDQSQRSAPGVQERRLKRIISHPFFNDFVTFDYDIALLELEKPAEYSSMVRPISLPDASHVFPAGKAIWVTGWGHTQYGGTGALILQKGEIRVINQTTCENLLPQQITPRMMCVGFLSGGVDSCGGDSGGPLSSVEADGRIFQAGVVSWGDGCAQRDKPGVYTRLPLFRDWIKENTGV :: 34.1
MTSP-1 protease domain F97E/F99L/C122S/G151A/Q192V (enzyme) VVGGTDADEGEWPWQVSLHALGQGHICGASLISPNWLVSAAHCYIDDRGFRYSDPTQWTAFLGLHDQSQRSAPGVQERRLKRIISHPFFNDETLDYDIALLELEKPAEYSSMVRPISLPDASHVFPAGKAIWVTGWGHTQYGGTAALILQKGEIRVINQTTCENLLPQQITPRMMCVGFLSGGVDSCVGDSGGPLSSVEADGRIFQAGVVSWGDGCAQRNKPGVYTRLPLFRDWIKENTGV :: 1040
MTSP-1 protease domain I41A/F97G/ins97aV/T98E/C122S (enzyme) VVGGTDADEGEWPWQVSLHALGQGHACGASLISPNWLVSAAHCYIDDRGFRYSDPTQWTAFLGLHDQSQRSAPGVQERRLKRIISHPFFNDGVEFDYDIALLELEKPAEYSSMVRPISLPDASHVFPAGKAIWVTGWGHTQYGGTGALILQKGEIRVINQTTCENLLPQQITPRMMCVGFLSGGVDSCQGDSGGPLSSVEADGRIFQAGVVSWGDGCAQRNKPGVYTRLPLFRDWIKENTGV :: 18.1
MTSP-1 protease domain Q38H/I41S/F60eT/Y60gW/D96M/F97N/T98G/F99L/C122S/G151N/Q175L/Q192D (enzyme) VVGGTDADEGEWPWQVSLHALGHGHSCGASLISPNWLVSAAHCYIDDRGTRWSDPTQWTAFLGLHDQSQRSAPGVQERRLKRIISHPFFNMNGLDYDIALLELEKPAEYSSMVRPISLPDASHVFPAGKAIWVTGWGHTQYGGTNALILQKGEIRVINQTTCENLLPQLITPRMMCVGFLSGGVDSCDGDSGGPLSSVEADGRIFQAGVVSWGDGCAQRNKPGVYTRLPLFRDWIKENTGV :: 35.7

Kindly consider the entry below.
Which EC50 hC3 cleavage is reported for this binder? MTSP-1 protease domain I41D/F97T/F99M/C122S/Q192V/D217M (enzyme) VVGGTDADEGEWPWQVSLHALGQGHDCGASLISPNWLVSAAHCYIDDRGFRYSDPTQWTAFLGLHDQSQRSAPGVQERRLKRIISHPFFNDTTMDYDIALLELEKPAEYSSMVRPISLPDASHVFPAGKAIWVTGWGHTQYGGTGALILQKGEIRVINQTTCENLLPQQITPRMMCVGFLSGGVDSCVGDSGGPLSSVEADGRIFQAGVVSWGMGCAQRNKPGVYTRLPLFRDWIKENTGV
63.8
